Entry source: patent US11274332B2

- assay-procedure: Example 18 Part 2: multiple dose PK (20 mg QID) of 3,4-DAP and 3-N-acetyl metabolite in slow and fast acetylators
- Assay type: in vivo, human
- condition-parameters: both sexes, human, plasma, oral, 20 mg, Day 3, Dose 2, slow acetylators, 20 mg QID; read-out: Mean AUC0-4
measured-attribute: AUC(0-t) (ng·h/mL)
Report as a plain number; the unit ng·h/mL is understood.

Prompt line: Using the record for Nc1ccncc1N , report its AUC(0-t).
Response line: 164

====

- assay-procedure: Example 18 Part 2: multiple dose PK (20 mg QID) of 3,4-DAP and 3-N-acetyl metabolite in slow and fast acetylators
- Assay type: in vivo, human
- condition-parameters: both sexes, human, plasma, oral, 20 mg, Day 3, slow acetylators, Dose 1 interval, 20 mg QID, arith. mean; read-out: Cmax
measured-attribute: Cmax
Answer by giving the amount and then stating its unit.

Prompt line: Using the record for CC(=O)Nc1cnccc1N [3-N-acetyl amifampridine, N-(4-aminopyridin-3-yl)acetamide] , report its Cmax.
Response line: 206 ng/mL

====

- assay-procedure: Example 18 Part 2: multiple dose PK (20 mg QID) of 3,4-DAP and 3-N-acetyl metabolite in slow and fast acetylators
- Format: in vivo, human
- condition-parameters: both sexes, human, plasma, oral, 20 mg, Day 4, 20 mg single dose, fast acetylators; read-out: Mean AUC0-24
measured-attribute: AUC(0-t) (ng·h/mL)
Report as a plain number; the unit ng·h/mL is understood.

Prompt line: Using the record for Nc1ccncc1N , report its AUC(0-t).
Response line: 25.9

====

- assay-procedure: Example 18 Part 2: multiple dose PK (20 mg QID) of 3,4-DAP and 3-N-acetyl metabolite in slow and fast acetylators
- Format: in vivo, human
- condition-parameters: both sexes, human, plasma, oral, 20 mg, Day 1, fast acetylators, Dose 2 interval, 20 mg QID, arith. mean; read-out: Vz/F
measured-attribute: Vd/F

Prompt line: Using the record for CC(=O)Nc1cnccc1N [3-N-acetyl amifampridine, N-(4-aminopyridin-3-yl)acetamide] , report its Vd/F.
Response line: 32.9 L

====

- assay-procedure: Example 18 Part 2: multiple dose PK (20 mg QID) of 3,4-DAP and 3-N-acetyl metabolite in slow and fast acetylators
- Type: in vivo, human
- condition-parameters: both sexes, human, plasma, oral, 20 mg, Day 1, Dose 3, slow acetylators, 20 mg QID; read-out: Mean Cmax
measured-attribute: Cmax (ng/mL)
Report as a plain number; the unit ng/mL is understood.

Prompt line: Using the record for Nc1ccncc1N , report its Cmax.
Response line: 72.2

====

- assay-procedure: Example 18 Part 2: multiple dose PK (20 mg QID) of 3,4-DAP and 3-N-acetyl metabolite in slow and fast acetylators
- Format: in vivo, human
- condition-parameters: both sexes, human, plasma, oral, 20 mg, Day 1, slow acetylators, Dose 4 interval, 20 mg QID, arith. mean; read-out: Cmax
measured-attribute: Cmax (ng/mL)
Report as a plain number; the unit ng/mL is understood.

Prompt line: Using the record for CC(=O)Nc1cnccc1N [3-N-acetyl amifampridine, N-(4-aminopyridin-3-yl)acetamide] , report its Cmax.
Response line: 235

====

- assay-procedure: Example 18 Part 2: multiple dose PK (20 mg QID) of 3,4-DAP and 3-N-acetyl metabolite in slow and fast acetylators
- Type: in vivo, human
- condition-parameters: both sexes, human, plasma, oral, 20 mg, Day 3, Dose 1, fast acetylators, 20 mg QID; read-out: Mean t1/2 (converted)
measured-attribute: half-life
Answer by giving the amount and then stating its unit.

Prompt line: Using the record for Nc1ccncc1N [3,4-DAP, 3,4-diaminopyridine] , report its half-life.
Response line: 1.07 h

====

- assay-procedure: Example 18 Part 2: multiple dose PK (20 mg QID) of 3,4-DAP and 3-N-acetyl metabolite in slow and fast acetylators
- Assay type: in vivo, human
- condition-parameters: both sexes, human, plasma, oral, 20 mg, Day 3, Dose 1, slow acetylators, 20 mg QID; read-out: Mean Vz/F
measured-attribute: Vd/F (L)
Report as a plain number; the unit L is understood.

Prompt line: Using the record for Nc1ccncc1N [3,4-DAP, 3,4-diaminopyridine] , report its Vd/F.
Response line: 283

====

- assay-procedure: Example 18 Part 2: multiple dose PK (20 mg QID) of 3,4-DAP and 3-N-acetyl metabolite in slow and fast acetylators
- Type: in vivo, human
- condition-parameters: both sexes, human, plasma, oral, 20 mg, Day 3, Dose 3, slow acetylators, 20 mg QID; read-out: Mean Cmax
measured-attribute: Cmax (ng/mL)
Report as a plain number; the unit ng/mL is understood.

Prompt line: Using the record for Nc1ccncc1N , report its Cmax.
Response line: 80.9

====

- assay-procedure: Example 18 Part 2: multiple dose PK (20 mg QID) of 3,4-DAP and 3-N-acetyl metabolite in slow and fast acetylators
- Type: in vivo, human
- condition-parameters: both sexes, human, plasma, oral, 20 mg, Day 3, fast acetylators, Dose 3 interval, 20 mg QID, arith. mean; read-out: AUC0-4
measured-attribute: AUC(0-t) (ng·h/mL)
Report as a plain number; the unit ng·h/mL is understood.

Prompt line: Using the record for CC(=O)Nc1cnccc1N [3-N-acetyl amifampridine, N-(4-aminopyridin-3-yl)acetamide] , report its AUC(0-t).
Response line: 1410

====

- assay-procedure: Example 18 Part 2: multiple dose PK (20 mg QID) of 3,4-DAP and 3-N-acetyl metabolite in slow and fast acetylators
- Assay type: in vivo, human
- condition-parameters: both sexes, human, plasma, oral, 20 mg, Day 4, 20 mg single dose, fast acetylators; read-out: Mean Tmax
measured-attribute: Tmax (min)
Report as a plain number; the unit min is understood.

Prompt line: Using the record for Nc1ccncc1N [3,4-DAP, 3,4-diaminopyridine] , report its Tmax.
Response line: 54

====

- assay-procedure: Food-effect crossover study, plasma and urine PK after single 20 mg amifampridine phosphate in healthy subjects (Examples 10, 12)
- Type: in vivo, human
- condition-parameters: human, plasma, oral, 20 mg, fasted, likely intermediate acetylators; read-out: 3,4-DAP plasma concentration at 4 hours post dose
measured-attribute: concentration at 4 h

Prompt line: Using the record for Nc1ccncc1N , report its concentration at 4 h.
Response line: 5 to 10 ng/mL

====

- assay-procedure: Example 18 Part 2: multiple dose PK (20 mg QID) of 3,4-DAP and 3-N-acetyl metabolite in slow and fast acetylators
- Type: in vivo, human
- condition-parameters: both sexes, human, plasma, oral, 20 mg, Day 3, Dose 2, slow acetylators, 20 mg QID; read-out: Mean Vz/F
measured-attribute: Vd/F (L)
Report as a plain number; the unit L is understood.

Prompt line: Using the record for Nc1ccncc1N , report its Vd/F.
Response line: 260

====

- assay-procedure: Example 18 Part 2: multiple dose PK (20 mg QID) of 3,4-DAP and 3-N-acetyl metabolite in slow and fast acetylators
- Assay type: in vivo, human
- condition-parameters: both sexes, human, plasma, oral, 20 mg, Day 3, fast acetylators, Dose 4 interval, 20 mg QID, arith. mean; read-out: t1/2 (converted)
measured-attribute: half-life (h)
Report as a plain number; the unit h is understood.

Prompt line: Using the record for CC(=O)Nc1cnccc1N [3-N-acetyl amifampridine, N-(4-aminopyridin-3-yl)acetamide] , report its half-life.
Response line: 4.17

====

- assay-procedure: Example 18 Part 2: multiple dose PK (20 mg QID) of 3,4-DAP and 3-N-acetyl metabolite in slow and fast acetylators
- Type: in vivo, human
- condition-parameters: both sexes, human, plasma, oral, 20 mg, Day 1, fast acetylators, Dose 3 interval, 20 mg QID, arith. mean; read-out: Tmax
measured-attribute: Tmax (min)
Report as a plain number; the unit min is understood.

Prompt line: Using the record for CC(=O)Nc1cnccc1N [3-N-acetyl amifampridine, N-(4-aminopyridin-3-yl)acetamide] , report its Tmax.
Response line: 57.8

====

- assay-procedure: Bioavailability/bioequivalence study of 3,4-DAP phosphate salt vs free base in healthy subjects (Example A)
- Assay type: in vivo, human
- condition-parameters: human, serum; phosphate salt or free base, 20 mg oral
- Method: The primary objectives of the study were to evaluate the clinical tolerance of a single 10 mg dose (equivalent base) oral intake of 3,4-DAP salt in five healthy subjects and to determine the relative bioequivalence of a single 20 mg oral dose of 3,4-DAP administered as a salt or as a free base to 26 healthy subjects. […] An HPLC-electrochemical detection system was used to assay 3,4-DAP in serum samples. […] The extracted sample was analyzed by HPLC coupled with coulemetric detection. […]
measured-attribute: half-life

Prompt line: Using the record for Nc1ccncc1N [3,4-DAP, 3,4-diaminopyridine] , report its half-life.
Response line: < 2.6 h

====

- assay-procedure: Example 18 Part 2: multiple dose PK (20 mg QID) of 3,4-DAP and 3-N-acetyl metabolite in slow and fast acetylators
- Assay type: in vivo, human
- condition-parameters: both sexes, human, plasma, oral, 20 mg, Day 4, 20 mg single dose, slow acetylators; read-out: Mean Cmax
measured-attribute: Cmax (ng/mL)
Report as a plain number; the unit ng/mL is understood.

Prompt line: Using the record for Nc1ccncc1N , report its Cmax.
Response line: 72.5
